Biological target: Polyunsaturated fatty acid 5-lipoxygenase (Mus musculus) (UniProt P48999)
Sequence (P48999 whole entry): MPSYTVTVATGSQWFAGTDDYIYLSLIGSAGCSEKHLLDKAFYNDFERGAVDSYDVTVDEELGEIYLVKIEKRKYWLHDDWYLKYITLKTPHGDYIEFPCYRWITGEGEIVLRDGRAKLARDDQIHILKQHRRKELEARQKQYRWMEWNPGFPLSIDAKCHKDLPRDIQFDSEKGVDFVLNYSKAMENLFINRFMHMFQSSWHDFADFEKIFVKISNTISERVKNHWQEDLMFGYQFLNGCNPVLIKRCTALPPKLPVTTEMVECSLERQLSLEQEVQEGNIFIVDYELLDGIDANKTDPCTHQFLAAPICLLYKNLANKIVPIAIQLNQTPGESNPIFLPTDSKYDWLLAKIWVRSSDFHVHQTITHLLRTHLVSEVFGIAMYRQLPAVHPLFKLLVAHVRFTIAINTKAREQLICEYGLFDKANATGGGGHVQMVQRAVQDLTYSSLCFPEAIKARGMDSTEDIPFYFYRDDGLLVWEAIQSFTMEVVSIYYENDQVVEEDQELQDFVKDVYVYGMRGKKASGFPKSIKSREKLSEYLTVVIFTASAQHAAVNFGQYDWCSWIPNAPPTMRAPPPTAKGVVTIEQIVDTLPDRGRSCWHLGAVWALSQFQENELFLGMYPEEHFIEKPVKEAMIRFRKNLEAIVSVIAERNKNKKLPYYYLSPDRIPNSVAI
Test: In vivo inhibition of 5-lipoxygenase (LTC4) in the mouse zymosan peritonitis assay at an oral dose of 30 mg/Kg
Type: functional, organism-based
Assay readout: ED50 (mg/kg)

1. CC(c1ccc2oc(-c3ccccc3)cc2c1)N(O)C(=O)CO (stereo unspecified)
2. CC(c1cc2ccccc2s1)N(O)C(N)=O (stereo unspecified)
3. COCC(=O)N(O)C(C)c1ccc2oc(-c3ccccc3)cc2c1 (stereo unspecified)
4. CC(c1ccc2oc(-c3ccccc3)cc2c1)N(O)C(N)=O (stereo unspecified)
Q: Arrange these 4 compounds in increasing order of ED50. // format: requested-order list of labels
Ans: 2, 4, 3, 1
(2: 2.71 mg/kg, 4: 10.3 mg/kg, 3: 18.6 mg/kg, 1: 27.5 mg/kg)
